Test system: BT-549 breast
PROTOCOL: NCI tumour cell line growth inhibition, 48 h
Reported TGI values are given for each entry in this list.

> print(dat)
                                   compound  property  reported.measurement
1  CCCCc1ccc(Nc2nc(Cl)c3c(ncn3C3CC(Oc4ccc(C)cc4)C(COc4ccc(C)cc4)O3)n2)cc1 (centres undefined)       TGI              > 100 µM

INPUT: Fill in TGI for record CCN(CC)CCn1c(=O)c2c(C)c3oc4ccccc4oc3c(C)c2c1=O
OUTPUT: > 100 µM

INPUT: Read off the recorded TGI for CO/N=C(\C([O-])=N\[n+]1cnn(CC(=O)OC(C)(C)C)c1)c1csc(NC(c2ccccc2)(c2ccccc2)c2ccccc2)n1
OUTPUT: > 10 µM

INPUT: Look up and state reported TGI for O=C(O)c1c2c(cc3c1CC1(Cc4cc5c(cc4C1=O)CCC5)C3)CCC2 (centres undefined)
OUTPUT: > 100 µM
